# experimentalSystem: Neuronal acetylcholine receptor; alpha3/beta4 (Rattus norvegicus) (UniProt P04757+P12392)
# assayComment: Antagonist activity at rat alpha3beta4 nAChR expressed in HEK293 cells assessed as inhibition of epibatadine-induced effect at 10 uM after 30 mins by fluorescent membrane potential assay relative to mecamylamine
# Format: cell-based
Bridge positions count the residues as written; N and C are the ends. Square brackets hold non-standard residues; d marks the D form. Peptide text beside a SMILES is read from it. Nle = CCCC[C@H](N)C(=O)O; Nva = CCC[C@H](N)C(=O)O; Abu = CC[C@H](N)C(=O)O
attributeMeasured: inhibition (%)

[[record]]
compound = "CCCC[C@@H]1NC(=O)[C@H](CO)NC(=O)[C@@H]2CSSC[C@@H](C(=O)O)NC(=O)[C@@H]3CCCN3C(=O)[C@H](CCC)NC(=O)[C@H](CC)NC(=O)[C@H]([C@H](C)CC)NC(=O)[C@H](CSSC[C@H](NC(=O)CN)C(=O)N2)NC(=O)[C@@H]2CCCN2C(=O)[C@@H]2CCCN2C1=O"
attributemeasured = "inhibition"
scaleunit = "%"
readoutnumber = 45.7

[[record]]
compound = "CCC[C@@H]1NC(=O)[C@H](Cc2c[nH]c3ccccc23)NC(=O)[C@H](Cc2ccccc2)NC(=O)[C@@H]2CSSC[C@H](NC(=O)CN)C(=O)N[C@@H](CSSC[C@@H](C(=O)O)NC(=O)[C@@H]3CCCN3C1=O)C(=O)N[C@@H](CO)C(=O)N[C@@H](Cc1cnc[nH]1)C(=O)N1CCC[C@H]1C(=O)N[C@@H](CC)C(=O)N2 (H-GCCSHP[Abu]CFW[Nva]PC-OH; disulfide 2-8, 3-13)"
attributemeasured = "inhibition"
scaleunit = "%"
readoutnumber = 36.2

[[record]]
compound = "CCCC[C@@H]1NC(=O)[C@H](CC2C=Nc3ccccc32)NC(=O)[C@H]([C@H](C)CC)NC(=O)[C@@H]2CSSC[C@H](NC(=O)CN)C(=O)N[C@@H](CSSC[C@@H](C(=O)O)NC(=O)[C@@H]3CCCN3C1=O)C(=O)N[C@@H](CO)C(=O)N[C@@H](CCCC)C(=O)N1CCC[C@H]1C(=O)N[C@@H](CC)C(=O)N2 (stereo partly specified)"
attributemeasured = "inhibition"
scaleunit = "%"
readoutnumber = 51.4

[[record]]
compound = "CCCC[C@@H]1NC(=O)[C@H](CC)NC(=O)[C@H](Cc2ccccc2)NC(=O)[C@@H]2CSSC[C@H](NC(=O)CN)C(=O)N[C@@H](CSSC[C@@H](C(=O)O)NC(=O)[C@H](Cc3ccc(O)cc3)NC1=O)C(=O)N[C@@H](CO)C(=O)N[C@@H](CCCC)C(=O)N1CCC[C@H]1C(=O)N1CCC[C@H]1C(=O)N2 (H-GCCS[Nle]PPCF[Abu][Nle]YC-OH; disulfide 2-8, 3-13)"
attributemeasured = "inhibition"
scaleunit = "%"
readoutnumber = 107

[[record]]
compound = "CCC[C@@H]1NC(=O)[C@H](Cc2c[nH]c3ccccc23)NC(=O)[C@H]([C@H](C)CC)NC(=O)[C@@H]2CSSC[C@H](NC(=O)CN)C(=O)N[C@@H](CSSC[C@@H](C(=O)O)NC(=O)[C@H](Cc3ccc(O)cc3)NC1=O)C(=O)N[C@@H](CO)C(=O)N[C@@H](Cc1cnc[nH]1)C(=O)N1CCC[C@H]1C(=O)N[C@@H](CC)C(=O)N2"
attributemeasured = "inhibition"
scaleunit = "%"
readoutnumber = 47.5

[[record]]
compound = "CCCC[C@@H]1NC(=O)[C@H](CC2C=Nc3ccccc32)NC(=O)[C@H]([C@H](C)CC)NC(=O)[C@@H]2CSSC[C@H](NC(=O)CN)C(=O)N[C@@H](CSSC[C@@H](C(=O)O)NC(=O)[C@@H]3CCCN3C1=O)C(=O)N[C@@H](CO)C(=O)N[C@@H](Cc1cnc[nH]1)C(=O)N1CCC[C@H]1C(=O)N[C@@H](CC)C(=O)N2 (stereo partly specified)"
attributemeasured = "inhibition"
scaleunit = "%"
readoutnumber = 15.4

